self-cleavage kobs at 2500 uM GlcN6P for assorted variants
B1: glmS ribozyme (parent)
chain: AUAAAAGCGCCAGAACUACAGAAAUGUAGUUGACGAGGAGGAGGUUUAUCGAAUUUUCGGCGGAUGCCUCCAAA

variants of: B1; test: self-cleavage kobs at 2500 uM GlcN6P; higher = faster cleavage; RNA array; details: with glucosamine-6-phosphate
Variants at the floor of the assay were thinned out.
Quick reminder: number only, in s⁻¹, skip the unit.

{"VARIANT STRING": "U46C A48C", "VALUE REPORTED": "8.54e-05"}
{"VARIANT STRING": "A48G A53C", "VALUE REPORTED": "7.97e-05"}
{"VARIANT STRING": "G38U U55A G62A U69G", "VALUE REPORTED": 0.0012}
{"VARIANT STRING": "U31A C58U U69G", "VALUE REPORTED": "7.72e-05"}
{"VARIANT STRING": "G29A A53U C67A", "VALUE REPORTED": 0.000241}
{"VARIANT STRING": "U46G C67U", "VALUE REPORTED": 0.00176}
{"VARIANT STRING": "G40A C70A", "VALUE REPORTED": 0.000235}
{"VARIANT STRING": "U45G C68U", "VALUE REPORTED": 0.000287}

I'd like to know its self-cleavage kobs at 2500 uM GlcN6P. The variant in question is A12C A52U
0.000188

Any idea what its self-cleavage kobs at 2500 uM GlcN6P is? The variant is U45A A48C
0.000382
